Data origin: BindingDB's records for doi:10.7270/Q2Z899TZ

Below is a list of entries, each paired with its recorded pIC50 value.
target: UniProtKB Q9Y2R2; assay: inhibition of human PTPN22 tyrosine phosphatase – biochemical, DiFMUP fluorescence, recombinant catalytic domain, 10 µM, primary screen (AID 606)
Sequence (Q9Y2R2 whole entry, the tested form may be a part): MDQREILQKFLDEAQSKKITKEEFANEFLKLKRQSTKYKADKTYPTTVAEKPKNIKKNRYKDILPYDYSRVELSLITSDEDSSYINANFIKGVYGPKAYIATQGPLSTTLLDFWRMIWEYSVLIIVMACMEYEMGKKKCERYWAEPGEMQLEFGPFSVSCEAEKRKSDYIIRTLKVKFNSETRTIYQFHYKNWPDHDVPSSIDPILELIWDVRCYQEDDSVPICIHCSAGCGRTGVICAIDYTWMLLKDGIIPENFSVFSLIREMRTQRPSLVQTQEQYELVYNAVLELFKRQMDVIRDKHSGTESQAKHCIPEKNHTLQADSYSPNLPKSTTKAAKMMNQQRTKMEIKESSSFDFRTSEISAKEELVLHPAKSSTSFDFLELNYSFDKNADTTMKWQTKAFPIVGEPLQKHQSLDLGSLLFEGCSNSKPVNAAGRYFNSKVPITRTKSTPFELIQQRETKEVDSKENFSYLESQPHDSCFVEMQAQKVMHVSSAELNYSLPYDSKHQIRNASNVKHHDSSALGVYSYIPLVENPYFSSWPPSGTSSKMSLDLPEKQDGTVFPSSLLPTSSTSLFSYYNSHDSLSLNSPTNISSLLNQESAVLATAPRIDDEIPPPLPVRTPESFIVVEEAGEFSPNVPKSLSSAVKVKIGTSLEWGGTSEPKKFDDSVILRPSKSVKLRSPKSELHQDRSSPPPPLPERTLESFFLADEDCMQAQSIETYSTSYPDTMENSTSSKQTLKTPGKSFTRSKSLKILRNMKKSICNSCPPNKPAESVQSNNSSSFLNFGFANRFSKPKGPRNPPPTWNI
Scale: negative log10 of molar concentration, which is what pIC50 denotes.

The molecule listed as `CC(C)Cn1c(N)c(C(=O)COC(=O)c2cc(-c3ccco3)nc3ccccc23)c(=O)n(C)c1=O` has a reported pIC50 of 5.24

The molecule listed as COc1ccc(Cn2c(C)nc3c(c2=O)c2nc4ccccc4nc2n3Cc2ccco2)cc1 [MLS000079944] has a reported pIC50 of 5.75

The molecule listed as `CCn1nc(-c2ccccc2)nc2c(=O)n(C)c(=O)nc1-2` has a reported pIC50 of 5.78

New cases:
The molecule listed as `CCCCC[C@H](O)C=C[C@H]1C=CC(=O)[C@@H]1C/C=C\CCCC(=O)O` has a reported pIC50 of 5.17

The molecule listed as Cc1ccc2c(c1C)NC(C(=O)O)C1CC=CC21 (stereo unspecified) has a reported pIC50 of 6.03
